- TARGET OR TEST SYSTEM: P323V dDAT mutant (Drosophila melanogaster, UniProt Q7K4Y6, P323V)
- ASSAY OVERVIEW: MAT-Ca2+ assay: inhibition of DA-induced Ca2+ signals
- CONDITION: P323V dDAT
MEASUREMENT NAME: IC50
Remember to quote the unit after the number.

Dear colleague, I am looking for the recorded IC50 of the following compound: CCCC(C(=O)c1ccc2c(c1)OCO2)N1CCCC1 (stereo not shown) [MDPV, 3,4-Methylenedioxypyrovalerone]
9.69 µM

----------
- TARGET OR TEST SYSTEM: A117S dDAT mutant (Drosophila melanogaster, UniProt Q7K4Y6, A117S)
- ASSAY OVERVIEW: MAT-Ca2+ assay: inhibition of DA-induced Ca2+ signals
- Type: cell-based
- CONDITION: A117S dDAT
MEASUREMENT NAME: pIC50
In simple prose, pIC50 is minus the logarithm base ten of a concentration in moles per litre.

Query: pIC50; subject: CCCC(C(=O)c1ccc2c(c1)OCO2)N1CCCC1 (stereo not shown) [MDPV, 3,4-Methylenedioxypyrovalerone]
5.08
